- Subject of test: 5-hydroxytryptamine receptor 1A (Rattus norvegicus, UniProt P19327)
- Sequence (P19327 whole entry): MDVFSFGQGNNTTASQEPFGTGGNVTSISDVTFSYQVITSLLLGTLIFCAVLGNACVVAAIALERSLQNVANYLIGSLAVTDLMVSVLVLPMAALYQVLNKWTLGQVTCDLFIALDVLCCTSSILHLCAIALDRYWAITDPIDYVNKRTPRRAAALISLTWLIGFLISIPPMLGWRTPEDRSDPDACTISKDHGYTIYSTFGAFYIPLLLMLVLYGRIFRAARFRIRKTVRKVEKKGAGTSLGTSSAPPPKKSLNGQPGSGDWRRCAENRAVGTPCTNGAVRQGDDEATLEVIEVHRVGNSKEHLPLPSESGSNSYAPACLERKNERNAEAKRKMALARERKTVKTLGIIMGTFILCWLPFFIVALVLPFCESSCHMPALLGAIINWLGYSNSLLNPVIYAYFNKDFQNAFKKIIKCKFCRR
Entries get a class label from measured IC50. See ranges: lo (below 1 nM), mid (1 nM to below 10 nM), hi (10 nM or more)

Known results for compounds:
COc1ccccc1N1CCN(CCCC2CCCc3ccccc32)CC1 (stereo unspecified) : lo
COc1ccccc1N1CCN(CC/C=C2\CCCc3c(OC)cccc32)CC1 : lo
COc1ccc2c(c1)C(CCCN1CCN(c3cccc(C(F)(F)F)c3)CC1)=CCC2 : hi
COc1ccc2c(c1)C(CCCCN1CCN(c3ccccc3OC)CC1)CCC2 (stereo unspecified) : mid
COc1cccc2c1CCCC2CCCN1CCN(c2ccccc2)CC1 (stereo unspecified) : lo

# next compound below
Class (by measured IC50) for COc1ccc2c(c1)C(SCCN1CCN(c3ccccc3OC)CC1)CCC2 (stereo unspecified)
mid
